All values here come from patent EP4659811A1.

Give measured EC50 for each item. Keep answers brief.
target: T1, VP1 pentamer of BKV genotype II (recombinant) (BK virus genotype II, UniProt P14996 30-300); test: ELISA, coated VP1 pentamer
T1 construct: also called GII; VP1 geno II pentamer; not shown: N-terminal His-tag of pESPRIT002; C-terminal biotin acceptor peptide (BAP) of pESPRIT002
Just the number please, in µg/mL, no unit attached.

Prompt: Param item = antibody E2P6 (antibody, V domains shown) VH: EVQLVESGGGLIQPGGSLRLSCAASGFTVSTNCMSWVRQAPGTGLEWVSVIYSGGTTYYADSVKGRFTISRDNSRNTLYLQMNGLRAEDTAVYYCARSVDTYDIYALDVWGQGTTVTVSS VL: DIQMTQSPSTLSASVGDRVTITCRASQSISRWLAWYQQKPGKAPKLLIYKASGLHSGAPSRFSGSGSGTEFTLTISGLQPDDFATYFCQQYNSYPWTFGQGTKVEIK ; retrieve measured EC50.
Completion: 0.14

Prompt: Which EC50 value is on record for antibody F3P7 (antibody, V domains shown) VH: QVQLVQSGAEVKKPGASVKVSCKVSGYTFTSYSMHWLRQAPGQRLEWMGWINAGNGDTKYSQKFQGRITISRDTSARTTYMELSSLRSEDTAVFYCARSNSPTVTYNYYYYAMDVWGQGTTVTVSS VL: EIVLTQSPGTLSLSPGERATLSCRASQSVRSSYLAWYQQQAGQAPRLLIYDASSRATGIPDRFSGSGSGTDFSLTISRLDPEDFAVYYCQQYGNSPLTFGGGTKVEIK ?
Completion: 1.5
